- System: H3K27me3 levels in T24 cells
- experiment.description: H3K27me3 level, 3-day MSD ELISA
- Assay type: cell-based
- condition.label: Homo sapiens, T-24; T24, H3K27me3, 72 hours, replicate 1; read-out: EC50 (nM) 3-day MSD Replicate 1
measured.attribute: EC50 (nM)
Answers are plain numbers, in nM.

For COC1CN([C@H]2CC[C@H]([C@@]3(C)Oc4c(Cl)cc(C(=O)NCc5c(SC)cc(C)[nH]c5=O)c(C)c4O3)CC2)C1 [Compound 1] , write its EC50. 0.323

----------
- System: H3K27me3 levels in T24 cells
- experiment.description: H3K27me3 level, 3-day MSD ELISA
- Format: cell-based
- condition.label: Homo sapiens, T-24; T24, H3K27me3, 72 hours, average of replicates; read-out: EC50 (nM) 3-day MSD Avg
measured.attribute: EC50 (nM)
Give bare numbers, in nM.

For COC1CN([C@H]2CC[C@H]([C@@]3(C)Oc4c(Cl)cc(C(=O)NCc5c(SC)cc(C)[nH]c5=O)c(C)c4O3)CC2)C1 [Compound 1] , write its EC50. 0.401

----------
- Tested on: H3K27me3 levels in BFTC905 cells
- experiment.description: H3K27me3 level, 3-day MSD ELISA
- Type: cell-based
- condition.label: Homo sapiens, BFTC-905; BFTC905, H3K27me3, 72 hours, replicate 2; read-out: EC50 (nM) 3-day MSD Replicate 2
measured.attribute: EC50 (nM)
One number for each entry, in nM.

For "COC1CN([C@H]2CC[C@H]([C@@]3(C)Oc4c(Cl)cc(C(=O)NCc5c(SC)cc(C)[nH]c5=O)c(C)c4O3)CC2)C1" , write its EC50. 0.096

----------
- Tested on: H3K27me3 levels in HT1197 cells
- experiment.description: H3K27me3 level, 3-day MSD ELISA
- Format: cell-based
- condition.label: Homo sapiens; HT1197, H3K27me3, 72 hours, average of replicates; read-out: EC50 (nM) 3-day MSD Avg
measured.attribute: EC50
Please give the number followed by its unit.

For "COC1CN([C@H]2CC[C@H]([C@@]3(C)Oc4c(Cl)cc(C(=O)NCc5c(SC)cc(C)[nH]c5=O)c(C)c4O3)CC2)C1" , write its EC50. 0.109 nM

----------
- Test system: H3K27me3 levels in KU1919 cells
- experiment.description: H3K27me3 level, 3-day MSD ELISA
- Format: cell-based
- condition.label: Homo sapiens, KU-19-19; KU1919, H3K27me3, 72 hours, replicate 2; read-out: EC50 (nM) 3-day MSD Replicate 2
measured.attribute: EC50 (nM)
One number for each entry, in nM.

For COC1CN([C@H]2CC[C@H]([C@@]3(C)Oc4c(Cl)cc(C(=O)NCc5c(SC)cc(C)[nH]c5=O)c(C)c4O3)CC2)C1 [Compound 1] , write its EC50. 0.405

----------
- System: H3K27me3 levels in HT1197 cells
- experiment.description: H3K27me3 level, 3-day MSD ELISA
- Type: cell-based
- condition.label: Homo sapiens; HT1197, H3K27me3, 72 hours, replicate 1; read-out: EC50 (nM) 3-day MSD Replicate 1
measured.attribute: EC50 (nM)
Give bare numbers, in nM.

# assay system H3K27me3 levels in HT1197 cells: give EC50 of COC1CN([C@H]2CC[C@H]([C@@]3(C)Oc4c(Cl)cc(C(=O)NCc5c(SC)cc(C)[nH]c5=O)c(C)c4O3)CC2)C1 [Compound 1] 0.077
